Entry source: PubChem BioAssay

# inhibition of aggregation per entry
assay: inhibitors of polyQ protein aggregation (AID 1604); conditions: polyglutamine-induced protein aggregation inhibition assay; stronger effect = higher value; tested at 2.5 µM
Could you give me the number in %? Just the number is fine.

Observe how each entry below is paired with its result.
[[record]]
molecule = "CC(=C(CCOP(=O)(O)O)SC(=O)c1ccccc1)N(C=O)Cc1cnc(C)nc1N"
numeric_readout = 39.4

[[record]]
molecule = "Cn1c(=O)c2[nH]c(C3CCCC3)nc2n(C)c1=O"
numeric_readout = -13.7

[[record]]
molecule = "CC(Oc1ccccc1)C(=O)N[C@@H]1C(=O)N2[C@@H]1SC(C)(C)[C@@H]2C(=O)O (stereo not given in full)"
numeric_readout = 78.9

[[record]]
molecule = "Cc1ccc(O)cc1"
numeric_readout = 83.3

[[record]]
molecule = "CNCCCN1c2ccccc2CCc2ccccc21"
numeric_readout = 7.32

[[record]]
molecule = "N[C@H](Cc1ccccc1)C(=O)O"
numeric_readout = 56.8

[[record]]
molecule = "CC(=O)N[C@@H](CCC(=O)O)C(=O)O"
numeric_readout = 74.1

[[record]]
molecule = "O=c1c(O)c(-c2ccc(O)cc2O)oc2cc(O)cc(O)c12"
numeric_readout = 49

[[record]]
molecule = "CN(C)CC/C=C1\\c2ccccc2Sc2ccc(Cl)cc21"
numeric_readout = 59.1

[[record]]
molecule = "C=C[C@H]1CN2CC[C@H]1C[C@@H]2[C@@H](O)c1ccnc2ccc(OC)cc12"
numeric_readout = 54.5


Query inhibition of aggregation for CN/C(=C\[N+](=O)[O-])NCCSCc1ccc(CN(C)C)o1
71.9

Query inhibition of aggregation for CCCCN1CCCCC1C(=O)Nc1c(C)cccc1C (stereo not given)
-27.4

Query inhibition of aggregation for COc1c2ccoc2cc2oc(=O)ccc12
80.3

Query inhibition of aggregation for CN(N=O)C(=O)N[C@@H]1[C@@H](O)[C@H](O)[C@@H](CO)O[C@@H]1O
69
